Assay: p53 small molecule agonists, cell-based qHTS assay: qHTS cell viability counter screen (AID 1963581); further: nearly all actives have a fitted effect of over 45% in size; further: potency means the concentration at half of the fitted maximal effect
Details: p53RE-bla HCT-116 viability, ATP luminescence, 16 h; series mostly up to 66 µM
Records with an inconclusive call do not appear. Active and inactive are the calls of the source. The call rests on the fitted dose curve.
OBSERVED PROPERTY: Potency

Worked examples, 5 compounds total:
CCCCN(CCCC)N=O	inactive
O=S(=O)(O)C(F)(F)C(F)(F)C(F)(F)C(F)(F)C(F)(F)C(F)(F)C(F)(F)C(F)(F)F	inactive
COc1ccc(O)c(C(C)(C)C)c1	inactive
C1CN2CCN1CC2	inactive
CCCCCCI	inactive

Problem: Given CCCC[n+]1ccc(C)cc1 , state its recorded Potency.
Result: inactive

Problem: Look up Potency for this compound: OC(O)C(Cl)(Cl)Cl
Result: inactive

Problem: Any idea what Potency was measured for CC(C)(N)Cc1ccccc1Cl ?
Result: inactive

Problem: Data request, read-out Potency, for Cc1ccc(N)cc1Cl
Result: inactive

Problem: Item under review: CC(=O)CC(c1ccc(Cl)cc1)c1c(O)c2ccccc2oc1=O (stereo not drawn) . Reported Potency?
Result: inactive

Problem: Find the recorded Potency belonging to Brc1ccc(Oc2cc(Br)c(Br)cc2Br)c(Br)c1 and report it.
Result: inactive

Problem: What does the record list as Potency for C1CC2OC2CC1C1CO1 (stereo not drawn) ?
Result: inactive

Problem: What Potency value was documented for this compound, O=S(=O)(c1ccccc1)c1ccccc1 ?
Result: inactive

Problem: What value of measured Potency is listed for CN1CC[C@]23c4c5ccc(O)c4O[C@H]2[C@@H](O)CC[C@H]3[C@H]1C5 ?
Result: inactive

Problem: For the compound CNC(=O)CSP(=S)(OC)OC , what Potency is on record?
Result: inactive

Problem: What value of Potency has been reported for the following compound? C[C@]12CC[C@H]3[C@@H](CC[C@@]45O[C@@H]4C(O)=C(C#N)C[C@]35C)[C@@H]1CC[C@@H]2O
Result: inactive

Problem: Bench note: what Potency did COc1ccc(C=O)cc1 show?
Result: inactive

Problem: Potency lookup needed for O=[N+]([O-])c1ccc(Cl)c([N+](=O)[O-])c1 , thanks.
Result: 26.1 µM (active)

Problem: Can you look up the measured Potency of C=CC1(C)OC(=O)N(c2cc(Cl)cc(Cl)c2)C1=O (stereo not drawn) for me?
Result: inactive

Problem: Please look up its Potency: CCNc1nc(Cl)nc(NCC)n1
Result: inactive

Problem: Sample CCCCCCCCCCn1cc[n+](C)c1 — what was its Potency?
Result: inactive

Problem: Report Potency for Clc1ccc(C(c2ccccc2Cl)C(Cl)(Cl)Cl)cc1 (stereo not drawn) please.
Result: inactive

Problem: Can you share its Potency? I mean this compound: CCC(C)(C)c1ccc(O)cc1
Result: inactive
